Tested on: 596521-263-R-J1-PDC complex spheroid growth
Test: Anticancer human tumor 596521-263-R-J1-PDC patient-derived soft tissue sarcoma cell line growth inhibition [Asc]
Conditions: second compound 0.1 µM; first compound 0.00949 µM; hits give low values
Values of viability, T/C strictly less than 70% map to yes, and values of at least 70% map to no.

{"columns": ["molecule", "studyTarget", "className"],
 "data": [
  ["CCN1C(C(=O)NC23CCC(C(=O)O)(CC2)CC3)C(c2cccc(Cl)c2F)C2(C(=O)Nc3cc(Cl)ccc32)C12CCCCC2 (stereo not given) + Cc1c(S(C)(=O)=O)c(-c2cc(F)cc(N3CCN(c4ccc(NS(=O)(=O)c5ccc(NC(CCN6CCC(C(=O)OCCCP(=O)(O)O)CC6)CSc6ccccc6)c(S(=O)(=O)C(F)(F)F)c5)cc4)CC3)c2)c(-c2ccc(Cl)cc2)n1C(C)C", "596521-263-R-J1-PDC complex spheroid growth", "no"],
  ["Cc1nc(N2CCC3(CC2)COC(C)C3N)c(CO)nc1Sc1ccnc(N)c1Cl (stereo not given) + Cc1c(S(C)(=O)=O)c(-c2cc(F)cc(N3CCN(c4ccc(NS(=O)(=O)c5ccc(NC(CCN6CCC(C(=O)OCCCP(=O)(O)O)CC6)CSc6ccccc6)c(S(=O)(=O)C(F)(F)F)c5)cc4)CC3)c2)c(-c2ccc(Cl)cc2)n1C(C)C", "596521-263-R-J1-PDC complex spheroid growth", "no"],
  ["NC(=O)C(=Cn1cnc(-c2cc(C(F)(F)F)cc(C(F)(F)F)c2)n1)c1cncnc1 + CNC(C)C(=O)NC1CN(S(=O)(=O)c2cccc(S(=O)(=O)N3CCC4CCC(C(=O)NC(c5ccccc5)c5ccccc5)N4C(=O)C(NC(=O)C(C)NC)C3)c2)CCC2CCC(C(=O)NC(c3ccccc3)c3ccccc3)N2C1=O", "596521-263-R-J1-PDC complex spheroid growth", "yes"],
  ["Cc1nc(N2CCC3(CC2)COC(C)C3N)c(CO)nc1Sc1ccnc(N)c1Cl (stereo not given) + CNC(C)C(=O)NC1CN(S(=O)(=O)c2cccc(S(=O)(=O)N3CCC4CCC(C(=O)NC(c5ccccc5)c5ccccc5)N4C(=O)C(NC(=O)C(C)NC)C3)c2)CCC2CCC(C(=O)NC(c3ccccc3)c3ccccc3)N2C1=O", "596521-263-R-J1-PDC complex spheroid growth", "no"]
]}

----------
System: 596521-263-R-J1-PDC complex spheroid growth
Assay: Anticancer human tumor 596521-263-R-J1-PDC cell line growth inhibition [Asc];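 note: spheroids exposed to compounds for 7 days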
Conditions: second compound 3.16 µM; first compound 0.1 µM; hits give low values

{"columns": ["molecule", "studyTarget", "unitsText", "viability, T/C"],
 "data": [
  ["C=C(F)C(=O)N1CCN(c2nc(OCC3CCCN3C)nc3c2CCN(c2cccc4cccc(Cl)c24)C3)CC1CC#N (stereo not drawn) + Cc1c(S(C)(=O)=O)c(-c2cc(F)cc(N3CCN(c4ccc(NS(=O)(=O)c5ccc(NC(CCN6CCC(C(=O)OCCCP(=O)(O)O)CC6)CSc6ccccc6)c(S(=O)(=O)C(F)(F)F)c5)cc4)CC3)c2)c(-c2ccc(Cl)cc2)n1C(C)C", "596521-263-R-J1-PDC complex spheroid growth", "%", 67.4],
  ["Cn1ncnc1[C@H]1c2n[nH]c(=O)c3cc(F)cc(c23)N[C@@H]1c1ccc(F)cc1 + Cc1c(S(C)(=O)=O)c(-c2cc(F)cc(N3CCN(c4ccc(NS(=O)(=O)c5ccc(NC(CCN6CCC(C(=O)OCCCP(=O)(O)O)CC6)CSc6ccccc6)c(S(=O)(=O)C(F)(F)F)c5)cc4)CC3)c2)c(-c2ccc(Cl)cc2)n1C(C)C", "596521-263-R-J1-PDC complex spheroid growth", "%", 40.2],
  ["CCN1CCN(Cc2ccc(Nc3ncc(F)c(-c4cc(F)c5nc(C)n(C(C)C)c5c4)n3)nc2)CC1 + Cc1c(S(C)(=O)=O)c(-c2cc(F)cc(N3CCN(c4ccc(NS(=O)(=O)c5ccc(NC(CCN6CCC(C(=O)OCCCP(=O)(O)O)CC6)CSc6ccccc6)c(S(=O)(=O)C(F)(F)F)c5)cc4)CC3)c2)c(-c2ccc(Cl)cc2)n1C(C)C", "596521-263-R-J1-PDC complex spheroid growth", "%", 59.6]
]}
